- MEASURED_TARGET: GABAA receptor α1β2γ2 (Homo sapiens, UniProt P14867+P18507)
- Construct: expressed in transfected cells; host or cells: Xenopus laevis oocytes injected with cRNA
- Sequence (P14867 28-456): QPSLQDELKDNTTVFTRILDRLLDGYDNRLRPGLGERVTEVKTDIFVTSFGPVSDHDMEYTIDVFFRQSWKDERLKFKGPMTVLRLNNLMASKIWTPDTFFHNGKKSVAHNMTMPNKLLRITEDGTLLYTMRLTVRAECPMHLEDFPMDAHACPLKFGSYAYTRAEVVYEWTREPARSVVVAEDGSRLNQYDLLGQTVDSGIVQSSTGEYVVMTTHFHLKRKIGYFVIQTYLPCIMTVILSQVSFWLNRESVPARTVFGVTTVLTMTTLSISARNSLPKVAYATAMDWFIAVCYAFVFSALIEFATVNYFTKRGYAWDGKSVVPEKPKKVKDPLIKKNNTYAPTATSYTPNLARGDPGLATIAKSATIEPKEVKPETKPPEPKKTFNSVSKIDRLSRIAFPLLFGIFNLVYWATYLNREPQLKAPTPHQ
- Sequence (P47870 25-512 partner limits assumed): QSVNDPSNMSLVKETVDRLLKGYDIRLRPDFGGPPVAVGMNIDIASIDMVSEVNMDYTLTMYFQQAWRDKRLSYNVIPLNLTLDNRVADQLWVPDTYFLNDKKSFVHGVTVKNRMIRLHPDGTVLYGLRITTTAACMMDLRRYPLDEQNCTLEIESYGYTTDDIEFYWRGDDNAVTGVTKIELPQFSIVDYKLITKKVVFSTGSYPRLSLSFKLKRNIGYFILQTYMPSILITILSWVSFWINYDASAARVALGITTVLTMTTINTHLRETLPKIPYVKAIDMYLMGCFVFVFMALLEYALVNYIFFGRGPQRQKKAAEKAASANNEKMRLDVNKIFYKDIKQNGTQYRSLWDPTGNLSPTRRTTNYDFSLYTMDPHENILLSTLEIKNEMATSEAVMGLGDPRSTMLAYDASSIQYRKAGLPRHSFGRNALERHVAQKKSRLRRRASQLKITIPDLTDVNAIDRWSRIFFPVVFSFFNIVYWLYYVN
- Sequence (P18507 40-475): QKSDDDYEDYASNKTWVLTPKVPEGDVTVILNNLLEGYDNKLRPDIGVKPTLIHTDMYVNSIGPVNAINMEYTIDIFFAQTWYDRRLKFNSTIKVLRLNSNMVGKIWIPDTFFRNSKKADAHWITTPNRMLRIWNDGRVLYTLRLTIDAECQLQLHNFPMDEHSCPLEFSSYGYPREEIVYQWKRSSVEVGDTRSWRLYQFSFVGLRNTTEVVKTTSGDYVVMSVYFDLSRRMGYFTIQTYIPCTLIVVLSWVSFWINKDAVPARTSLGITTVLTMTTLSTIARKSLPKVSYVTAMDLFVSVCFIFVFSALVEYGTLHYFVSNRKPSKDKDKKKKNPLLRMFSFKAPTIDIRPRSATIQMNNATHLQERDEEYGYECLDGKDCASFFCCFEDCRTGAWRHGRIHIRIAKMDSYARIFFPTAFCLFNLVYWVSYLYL
- ASSAY_INFO: Two-electrode voltage-clamp potentiation of GABA EC10 current in Xenopus oocytes, GABAA1
- Assay type: cell-based
- STATED_CONDITIONS: percentage potentiation of GABA EC10 current divided by that of diazepam

{"columns": ["LINE_NOTATION", "Relative Potentiation for GABAA1"],
 "data": [
  ["CCCN1Cc2nc3c(-c4ccc5[nH]ccc5c4)cccc3c(N)c2C1=O", 0.55],
  ["CCCN1Cc2nc3c(-c4cc(C)ccc4C)cccc3c(N)c2C1=O", 0.22],
  ["CCN1Cc2nc3c(-c4cccnc4OC)cccc3c(N)c2C1=O", 0.022],
  ["CCCN1Cc2nc3c(-c4c(F)cc(OC)cc4F)cccc3c(N)c2C1=O", 0.16],
  ["CCCN1Cc2nc3c(-c4ccc(OC)nc4OC)cccc3c(N)c2C1=O", 0.068],
  ["COc1ncc(-c2cccc3c(N)c4c(nc23)CN(C2CCC2)C4=O)cc1C", 0.029],
  ["COc1ncccc1-c1cccc2c(N)c3c(nc12)CN([C@H]1C[C@@H](C)C1)C3=O", 0.085],
  ["Nc1c2c(nc3c(-c4ccccc4F)cccc13)CN(C1CC1)C2=O", "−0.024"],
  ["CCN1Cc2nc3c(-c4cnccc4C)c(F)ccc3c(N)c2C1=O", "−0.0025"],
  ["CCCN1Cc2nc3c(-c4c(F)cccc4F)cccc3c(N)c2C1=O", 0.083],
  ["CCCN1Cc2nc3c(-c4ccc(C)nc4C)cccc3c(N)c2C1=O", 0.45],
  ["CCN1Cc2nc3c(-c4cc(F)ccc4OC)c(F)ccc3c(N)c2C1=O", "−0.008"],
  ["CCCN1Cc2nc3c(-c4cc(F)ccc4C)cccc3c(N)c2C1=O", 0.29],
  ["CCCN1Cc2nc3c(-c4ccc(OC)nc4OC)c(F)ccc3c(N)c2C1=O", 0.15],
  ["CCN1Cc2nc3c(-c4c(F)cc(OC)cc4F)c(F)ccc3c(N)c2C1=O", "−0.09"],
  ["CCCN1Cc2nc3c(-c4ccc(C)nc4Cl)cccc3c(N)c2C1=O", 0.29],
  ["COc1ccccc1-c1c(F)ccc2c(N)c3c(nc12)CN(C1CC1)C3=O", 0.02],
  ["COc1ccc(CN2Cc3nc4c(-c5cc(C)ccc5OC)cccc4c(N)c3C2=O)cc1OC", 0.3],
  ["COc1ncc(-c2c(F)ccc3c(N)c4c(nc23)CN(C2CC2)C4=O)c(OC)n1", 0.13],
  ["CCN1Cc2nc3c(-c4cc(Cl)ccc4OC)c(F)ccc3c(N)c2C1=O", 0.033],
  ["COc1ccc(OC)c(-c2cccc3c(N)c4c(nc23)CN(Cc2ccc(OC)c(OC)c2)C4=O)c1", 0.15],
  ["COc1ccc(CN2Cc3nc4c(-c5ccc(C)nc5Cl)cccc4c(N)c3C2=O)cc1OC", 0.11],
  ["COc1ccc(-c2cccc3c(N)c4c(nc23)CN(C2CC2)C4=O)c(F)c1", "−0.05"],
  ["COc1ccc(-c2cccc3c(N)c4c(nc23)CN(C2CCCC2)C4=O)cn1", 0.016],
  ["COc1ccc(-c2cccc3c(N)c4c(nc23)CN(C2CCC2)C4=O)c(C)n1", "−0.0033"],
  ["N#Cc1ccc(-c2cccc3c(N)c4c(nc23)CN(C2CCC2)C4=O)nc1", 0.005],
  ["Cc1nc(Cl)ccc1-c1cccc2c(N)c3c(nc12)CN(C1CC1)C3=O", 0.16],
  ["CCCN1Cc2nc3c(-c4cc(Cl)cnc4OC)cccc3c(N)c2C1=O", 0.49],
  ["COc1ncncc1-c1cccc2c(N)c3c(nc12)CN(C1CCC1)C3=O", 0.083],
  ["CCCN1Cc2nc3c(-c4ccc(C)cc4)cccc3c(N)c2C1=O", 0.37],
  ["CCN1Cc2nc3c(-c4cc(C)cc(C)c4)cccc3c(N)c2C1=O", 0.34],
  ["COc1ccc(Cl)cc1-c1cccc2c(N)c3c(nc12)CN(C1CC1)C3=O", 0.19],
  ["COc1ccc(C)cc1-c1cccc2c(N)c3c(nc12)CN(C1CCC1)C3=O", 0.19],
  ["Nc1c2c(nc3c(-c4cncnc4)c(F)ccc13)CN(C1CCC1)C2=O", "−0.053"],
  ["COc1ccc(CN2Cc3nc4c(-c5cccnc5OC)cccc4c(N)c3C2=O)cc1OC", 0.12],
  ["COc1ccc(CN2Cc3nc4c(-c5cnccc5OC)cccc4c(N)c3C2=O)cc1OC", 0.23],
  ["CCCN1Cc2nc3c(-c4ccoc4)cccc3c(N)c2C1=O", 0.13],
  ["Cc1ccc(-c2cccc3c(N)c4c(nc23)CN(C2CC2)C4=O)cn1", "−0.11"],
  ["CCCN1Cc2nc3c(-c4ccc(OC)c(OC)c4OC)cccc3c(N)c2C1=O", 0.55],
  ["Cc1ccc(-c2cccc3c(N)c4c(nc23)CN(C2CCC2)C4=O)cn1", "−0.13"]
]}
